biological target: CDK2/cyclin A (Homo sapiens (Human)); assay: CDK2/Cyclin A enzymatic activity assay (IMAP-FP); assay type: biochemical; conditions: Table 4; read-out: IC50 (μM) CDK2
Attribute: IC50
attribute-measured: IC50

compound: O=C(c1cc2cnc(Nc3ccc(N4CCNCC4)cc3)nc2n1C1CCCC1)N1CCC1 [Example 201, reference compound]
meas-value: 10.3 µM
--
compound: CN(C)C(=O)c1cc2cnc(Nc3ccc(N4CCN(CCO)CC4)cn3)nc2n1C1CCCC1
meas-value: > 15 µM
--
compound: CC(C)N1CCN(c2ccc(Nc3ncc4cc(C(=O)N(C)C)n(C5CCCC5)c4n3)nc2)CC1
meas-value: > 15 µM
--
compound: CN(C)C(=O)c1cc2cnc(Nc3ccc(N4CCNCC4)cc3)nc2n1C1CCCC1 [Example 200, reference compound]
meas-value: > 1.4 µM
--
compound: Cc1c(C(=O)N(C)C)n(C2CCCC2)c2nc(Nc3ccc(N4CCNCC4)cn3)ncc12 [Example 202, reference compound]
meas-value: > 15 µM

Sourced from patent US8962630B2
